Tested on: normal human plasma
protocolDescription: Activated partial thromboplastin times (APTT), blood coagulation in vitro
Assay type: biochemical
studyConditions: inhibitor 50 nM
measurementLabel: Activated Partial Thromboplastin Times (s)
Report the value in s with no unit label.

Worked set:
{"columns": ["compound", "Activated Partial Thromboplastin Times [s]"],
 "data": [
  ["Br.CC(=O)NC(Cc1ccccc1)C(=O)NC(CCCSC(=N)N)B1OC2CC3CC(C3(C)C)C2(C)O1 (stereo not shown)", 35.2],
  ["Br.CC(C)(C)OC(=O)NC(Cc1ccccc1)C(=O)NC(Cc1ccccc1)C(=O)NC(CCCSC(=N)N)B1OC2CC3CC(C3(C)C)C2(C)O1 (stereo not shown)", 35.8],
  ["CC(C)(C)OC(=O)N[C@H](Cc1ccccc1)C(=O)N[C@@H](Cc1ccccc1)C(=O)N[C@@H](CCCNC(=N)N)B1OC2CC3CC(C3(C)C)C2(C)O1.O=S(=O)(O)c1ccccc1 (stereo partly shown)", 36.8]
]}

Now consider the entry below.
Input: What is its Activated Partial Thromboplastin Times for normal human plasma? Entry: CC(=O)NC(Cc1ccccc1)C(=O)NC(CCCNC(=N)N)B1OC2CC3CC(C3(C)C)C2(C)O1.Cl (stereo not shown) [Compound F, Ac-Phe-boroArg-C10 H16.HCl]
Output: 35

// provenance: patent US5187157A
